Target: human OX1 receptors (Homo sapiens, UniProt O43613)
Construct: expressed in transfected cells; host or cells: CHO cells
Sequence (O43613 whole entry): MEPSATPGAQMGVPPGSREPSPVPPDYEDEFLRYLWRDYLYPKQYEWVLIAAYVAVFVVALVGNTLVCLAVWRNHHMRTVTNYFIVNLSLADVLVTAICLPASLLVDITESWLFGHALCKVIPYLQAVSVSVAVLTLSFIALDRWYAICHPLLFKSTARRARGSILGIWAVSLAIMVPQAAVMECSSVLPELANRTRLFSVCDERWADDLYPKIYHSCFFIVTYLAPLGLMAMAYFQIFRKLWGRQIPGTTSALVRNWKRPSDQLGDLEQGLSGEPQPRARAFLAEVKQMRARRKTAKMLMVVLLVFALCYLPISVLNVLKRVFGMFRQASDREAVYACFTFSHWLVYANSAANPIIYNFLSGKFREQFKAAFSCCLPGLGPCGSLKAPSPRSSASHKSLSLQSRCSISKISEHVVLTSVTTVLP
Test: antagonistic activity against human OX1 receptor, calcium fluorimetry (Fluo-4NW) in transfected CHO cells
Assay type: cell-based
Details: CHO cells transfected with human recombinant OX1, activated with orexin-A 3 nM; pKb = co-logarithm of apparent dissociation constant (modified Cheng Prusoff)
Kb overview
PROPERTY_LABEL: Kb (nM)

1. N#Cc1ccc(-c2ncccn2)c(C(=O)N2[C@H](CNc3ccc(C(F)(F)F)cn3)CC[C@H]3C[C@H]32)c1 : 5.01
2. Cc1nc(C(=O)N2[C@H](CNc3nccc(C(F)(F)F)n3)CC[C@H]3C[C@H]32)c(-c2ccccc2)s1 : 1.26
3. O=C(c1cc(Cl)ccc1-c1ncccn1)N1[C@H](CNc2ccc(C(F)(F)F)cn2)CC[C@@H]2C[C@@H]21 : 5.01
